The values you see were collected from patent US11578084B2.

target.entity: human recombinant dopamine D2 receptor (Homo sapiens (Human))
Sequence (P14416 whole entry): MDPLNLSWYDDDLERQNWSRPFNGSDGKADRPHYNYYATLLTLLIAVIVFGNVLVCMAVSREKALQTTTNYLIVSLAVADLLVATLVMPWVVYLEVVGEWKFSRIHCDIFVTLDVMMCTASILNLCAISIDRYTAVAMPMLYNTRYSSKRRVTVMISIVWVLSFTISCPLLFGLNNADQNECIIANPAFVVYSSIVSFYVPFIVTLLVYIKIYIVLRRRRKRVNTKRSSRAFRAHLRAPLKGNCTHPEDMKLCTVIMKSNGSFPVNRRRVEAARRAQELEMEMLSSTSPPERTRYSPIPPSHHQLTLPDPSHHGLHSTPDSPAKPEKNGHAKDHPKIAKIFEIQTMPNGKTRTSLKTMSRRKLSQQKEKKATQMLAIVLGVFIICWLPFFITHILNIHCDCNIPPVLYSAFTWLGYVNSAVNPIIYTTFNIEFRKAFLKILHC
experimental.details: Test of binding inhibition for dopamine D2 receptor ([3H]-Methylspiperone SPA)
condition.set: Jump-In HEK cell membranes, 1.2 nM [3H]-Methylspiperone, 120 min at 25° C.; read-out: hD2_Ki
Description: (Experimental Conditions) Cell membranes: Jump-In HEK cell membranes expressing human recombinant dopamine D2 receptor (2 μg/well) Non-specific ligand: (final concentration) 10 μM Butaclamol [(+)-Butaclamol Hydrochloride, D033, Sigma] SPA beads solution: SPA beads [WGA PVT SPA Scintillation Beads, RPNQ0001 (500 mg), RPNQ0060 (2 g), PerkinElmer] (0.2 mg/well) Incubation time and temperature: 120 min at 25° C. […]
Documented Ki across a set of compounds
measurement.kind: Ki

record_smiles=Cc1ncc(/C=C/C(=O)N[C@H]2CC[C@H](CCN3CCc4nc(OCC(C)(F)F)sc4CC3)CC2)cn1 target_entity="human recombinant dopamine D2 receptor (Homo sapiens (Human))" measurement="240 nM"
record_smiles=Cn1cc2c(C(=O)N[C@H]3CC[C@H](CCN4CCc5ccc(OC6CCC6)nc5CC4)CC3)cccc2n1 target_entity="human recombinant dopamine D2 receptor (Homo sapiens (Human))" measurement="> 2200 nM"
record_smiles=Cc1ncccc1C(=O)N[C@H]1CC[C@H](CCN2CCc3ccc(OCC(F)F)nc3CC2)CC1 target_entity="human recombinant dopamine D2 receptor (Homo sapiens (Human))" measurement="940 nM"
record_smiles=Cc1ncc(/C=C/C(=O)N[C@H]2CC[C@](F)(CCN3CCc4nc(OCC(F)F)sc4CC3)CC2)cn1 target_entity="human recombinant dopamine D2 receptor (Homo sapiens (Human))" measurement="> 1800 nM"
record_smiles=Cc1cnc(CC(=O)N[C@H]2CC[C@H](CCN3CCc4nc(OCC(C)(F)F)sc4CC3)CC2)o1 target_entity="human recombinant dopamine D2 receptor (Homo sapiens (Human))" measurement="910 nM"
record_smiles=Cn1nnc2cccc(C(=O)N[C@H]3CC[C@H](CCN4CCc5nc(OCC(C)(F)F)sc5CC4)CC3)c21 target_entity="human recombinant dopamine D2 receptor (Homo sapiens (Human))" measurement="270 nM"
record_smiles=Cn1cc2ccc(C(=O)N[C@H]3CC[C@H](CCN4CCc5nc(OCC(C)(F)F)sc5CC4)OC3)cc2n1 target_entity="human recombinant dopamine D2 receptor (Homo sapiens (Human))" measurement="770 nM"
record_smiles=CC(F)(F)COc1nc2c(s1)CCN(CC[C@]1(F)CC[C@@H](NC(=O)c3cccnc3C(F)F)CC1)CC2 target_entity="human recombinant dopamine D2 receptor (Homo sapiens (Human))" measurement="740 nM"
record_smiles=Cc1cnc(CC(=O)N[C@H]2CC[C@H](CCN3CCc4ccc(OC5CCC5)nc4CC3)CC2)o1 target_entity="human recombinant dopamine D2 receptor (Homo sapiens (Human))" measurement="> 2400 nM"
record_smiles=Cc1nnc(CC(=O)N[C@H]2CC[C@](F)(CCN3CCc4ccc(CCC(F)(F)F)nc4CC3)CC2)s1 target_entity="human recombinant dopamine D2 receptor (Homo sapiens (Human))" measurement="> 2300 nM"
record_smiles=Cc1cnc(OCC(=O)N[C@H]2CC[C@H](CCN3CCc4sc(OCC(C)(F)F)nc4C3)CC2)cn1 target_entity="human recombinant dopamine D2 receptor (Homo sapiens (Human))" measurement="500 nM"
record_smiles=Cc1ncc(CC(=O)N[C@H]2CC[C@H](CCN3CCc4nc(OCC(C)(F)F)sc4CC3)OC2)s1 target_entity="human recombinant dopamine D2 receptor (Homo sapiens (Human))" measurement="950 nM"
record_smiles=Cc1cc2c(C(=O)N[C@H]3CC[C@](F)(CCN4CCc5nc(OCC(F)F)sc5CC4)CC3)cccn2n1 target_entity="human recombinant dopamine D2 receptor (Homo sapiens (Human))" measurement="> 1700 nM"
record_smiles=Cn1cc2c(C(=O)N[C@H]3CC[C@H](CCN4CCc5sc(OCC(C)(F)F)nc5C4)CC3)c(F)ccc2n1 target_entity="human recombinant dopamine D2 receptor (Homo sapiens (Human))" measurement="340 nM"
record_smiles=Cn1c(C(=O)N[C@H]2CC[C@H](CCN3CCc4nc(OCC(F)(F)F)sc4CC3)CC2)ccc(F)c1=O target_entity="human recombinant dopamine D2 receptor (Homo sapiens (Human))" measurement="360 nM"
